- System under test: human calcitonin receptor (Homo sapiens)
- Sequence (P30988 25-474): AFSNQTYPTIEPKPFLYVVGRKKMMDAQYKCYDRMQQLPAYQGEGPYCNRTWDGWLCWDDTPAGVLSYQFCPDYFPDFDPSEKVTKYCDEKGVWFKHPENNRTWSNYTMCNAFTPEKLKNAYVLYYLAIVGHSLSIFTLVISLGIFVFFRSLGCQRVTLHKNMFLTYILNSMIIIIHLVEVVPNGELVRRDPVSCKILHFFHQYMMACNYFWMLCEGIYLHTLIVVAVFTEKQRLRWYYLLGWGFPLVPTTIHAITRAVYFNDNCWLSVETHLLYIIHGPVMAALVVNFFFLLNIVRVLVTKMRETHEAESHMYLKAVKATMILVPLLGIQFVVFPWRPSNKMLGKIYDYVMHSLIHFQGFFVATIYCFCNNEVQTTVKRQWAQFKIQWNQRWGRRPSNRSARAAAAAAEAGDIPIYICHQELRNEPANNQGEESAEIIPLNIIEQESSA
- Assay comment: CRE-luciferase induction in Hollex-1 cells (BHK, human calcitonin receptor)
Test readout: EC50 (nM)
Give the value in nM but do not write nM after it.

Fill in EC50 for record C=C[C@@]1(C)CC(=O)[C@]2(O)[C@@]3(C)[C@@H](O)CCC(C)(C)[C@@H]3[C@H](O)[C@H](OC(C)=O)[C@@]2(C)O1 [forskolin]
1200
